Test system: germline ε promoter
Test: Functional profile of BR10A1 wt and mutants in the A5T4 reporter cell line
Format: cell-based, human
Conditions: A5T4 reporter line; separate experiment with its own WT control
assay_endpoint: Reporter Ratio
Numbers only.

Past entries and their recorded results:
[
  {
    "input_sequence": "MQRRAACITRSVEEGWGLFYLGP (peptide encoded by random oligo-BR10A1ES) [dual alanine mutant of BR10A1 wt]",
    "system_name": "germline ε promoter",
    "Reporter Ratio": 1.50
  },
  {
    "input_sequence": "MQRRESCITRSVEEGWGLAALGP (peptide encoded by random oligo-BR10A1FY) [dual alanine mutant of BR10A1 wt]",
    "system_name": "germline ε promoter",
    "Reporter Ratio": 1.34
  },
  {
    "input_sequence": "MQRRESCITRSVEEGWGLFY (peptide encoded by random oligo-BR10A1STOP) [C-terminally truncated form of BR10A1 wt]",
    "system_name": "germline ε promoter",
    "Reporter Ratio": 1.34
  },
  {
    "input_sequence": "AARRESCITRSVEEGWGLFYLGP (peptide encoded by random oligo-BR10A1MQ) [dual alanine mutant of BR10A1 wt]",
    "system_name": "germline ε promoter",
    "Reporter Ratio": 1.57
  }
]

State recorded Reporter Ratio with germline ε promoter, entry MQRRESCITRSVEEGWGLFYLGP (peptide encoded by random oligo-BR10A1wt) [wild-type peptide from random library, expressed in cells as BFP-peptide fusion] , no comment. 1.55
